Measured normalised response values are reported for all entries that follow.
Tested on: MFM-223
experiment-notes: normalised response (% of control), CellTiter-Glo; higher = more viable cells (100 = DMSO, 0 = benzethonium chloride kill control)
experimental-conditions: incubation time: 72 h
Please give a number only; it is taken to be in %.

See these solved cases before continuing.
>>> measurement("COCC[n+]1c2c(n(Cc3cnccn3)c1C)C(=O)c1ccccc1C2=O [YM155] (1 nM)")
86.8
>>> measurement("NC(=O)c1ccc(I)c([N+](=O)[O-])c1 [Iniparib] (10 nM)")
84.2
>>> measurement("COc1cc2/c(=N/c3ccc(Br)cc3F)nc[nH]c2cc1OCC1CCN(C)CC1 [Vandetanib] (0.1 nM)")
85.2
>>> measurement("O=C(Nc1cccnc1)N1CCC(Cc2cccc(Oc3ccc(C(F)(F)F)cn3)c2)CC1 [PF-3845] (1000 nM)")
109
>>> measurement("CNC(=O)c1ccc(N2C(=S)N(c3ccc(C#N)c(C(F)(F)F)c3)C(=O)C2(C)C)cc1F [Enzalutamide] (1000 nM)")
97.7
>>> measurement("COCC1(CO)C(=O)C2CCN1CC2 (stereo not drawn) [Prima-1 Met] (10 nM)")
103
>>> measurement("N#Cc1ccc(COC[C@H]2O[C@@H](n3c(NCc4ccc(Cl)c(Cl)c4)nc4c(N)ncnc43)[C@H](O)[C@@H]2O)cc1 (1 nM)")
107
>>> measurement("O=P1(N(CCCl)CCCl)NCCCO1 (stereo not drawn) [Cyclophosphamide] (4 nM)")
105

The reported normalised response of the molecule COC(=O)c1ccc2c(c1)NC(=O)/C2=C(\Nc1ccc(N(C)C(=O)CN2CCN(C)CC2)cc1)c1ccccc1 [Nintedanib] (1000 nM) was 59.2

The reported normalised response of the molecule CCn1c(-c2nonc2N)nc2cnc(Oc3cccc(NC(=O)c4ccc(OCCN5CCOCC5)cc4)c3)cc21 (10 nM) was 106

The reported normalised response of the molecule O=C(Nc1ccncc1)C(=O)c1cn(Cc2ccc(Cl)cc2)c2ccccc12 [Indibulin] (1000 nM) was 60

The reported normalised response of the molecule CO[C@H]1C[C@@H]2CC[C@@H](C)[C@@](O)(O2)C(=O)C(=O)N2CCCC[C@H]2C(=O)O[C@H]([C@H](C)C[C@@H]2CC[C@@H](OP(C)(C)=O)[C@H](OC)C2)CC(=O)[C@H](C)/C=C(\C)[C@@H](O)[C@@H](OC)C(=O)[C@H](C)C[C@H](C)/C=C/C=C/C=C/1C [Ridaforolimus] (10 nM) was 72.8

The reported normalised response of the molecule CO[C@H]1C[C@@H]2CC[C@@H](C)[C@@](O)(O2)C(=O)C(=O)N2CCCC[C@H]2C(=O)O[C@H]([C@H](C)C[C@@H]2CC[C@@H](OP(C)(C)=O)[C@H](OC)C2)CC(=O)[C@H](C)/C=C(\C)[C@@H](O)[C@@H](OC)C(=O)[C@H](C)C[C@H](C)/C=C/C=C/C=C/1C [Ridaforolimus] (0.01 nM) was 105

---

Measured drug sensitivity score values are reported for all entries that follow.
System: HCC1599
experiment-notes: drug sensitivity score (DSS), CellTiter-Blue viability (DSS (AUC-based score)); higher = stronger viability inhibition; extreme values may be limits of the assay
experimental-conditions: incubation time: 72 h
// no unit, no text: just the number

See these solved cases before continuing.
>>> measurement("Nc1cc(C(F)(F)F)c(-c2cc(N3CCOCC3)nc(N3CCOCC3)n2)cn1")
8.97
>>> measurement("Cc1ccc(NC(=O)c2ccc(CN3CCN(C)CC3)cc2)cc1Nc1nc(-c2cccnc2)cs1")
0
>>> measurement("Cc1[nH]c2ccccc2c1CCNCc1ccc(/C=C/C(=O)NO)cc1")
16.1

From here, focus on the item given below.
The reported drug sensitivity score of the molecule O=C(Nc1ccncc1)C(=O)c1cn(Cc2ccc(Cl)cc2)c2ccccc12 was 0
